meta.source: paper PMC11784839

MEASURED_TARGET: tau (Homo sapiens, UniProt P10636)
Sequence (P10636 623-695 limits assumed): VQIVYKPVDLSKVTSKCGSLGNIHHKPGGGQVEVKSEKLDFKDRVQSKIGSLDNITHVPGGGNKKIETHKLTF
ASSAY_NAME: MCE Phenols Library screening, tau biosensor cell seeding assay (AvZ)
Assay type: cell-based
SETTINGS: average Z score of the two replicates, MCE Phenols Library screen
REPORTED_METRIC: av Z
// return just the number, without any unit appended

>  <COMPOUND>
COc1ccc(-c2oc3c(CCC(C)(C)O)c(O[C@@H]4O[C@H](CO)[C@@H](O)[C@H](O)[C@H]4O)cc(O)c3c(=O)c2O)cc1 [Maohuoside A]

>  <av Z>
-0.51

$$$$
>  <COMPOUND>
O=C(C=Cc1ccc(O)c(O)c1)OC1CC(OC(=O)C=Cc2ccc(O)c(O)c2)(C(=O)O)CC(O)C1O (stereo not drawn)

>  <av Z>
-0.832

$$$$
>  <COMPOUND>
C[C@@H]1O[C@@H](OC[C@H]2O[C@@H](Oc3c(-c4ccc(O)cc4)oc4cc(O)cc(O)c4c3=O)[C@H](O[C@@H]3O[C@@H](C)[C@H](O)[C@@H](O)[C@H]3O)[C@@H](O)[C@@H]2O)[C@H](O)[C@H](O)[C@H]1O

>  <av Z>
-0.528

$$$$
>  <COMPOUND>
O=C(O[C@@H]1Cc2c(O)cc(O)cc2O[C@@H]1c1cc(O)c(=O)c2c(O)c(O)cc([C@H]3Oc4cc(O)cc(O)c4C[C@H]3O)c2c1)c1cc(O)c(O)c(O)c1 [Theaflavin-3-gallate]

>  <av Z>
-1.614

$$$$
>  <COMPOUND>
CC(C)=CCc1cc(C(=O)/C=C/c2ccc(O)cc2)c(O)cc1O

>  <av Z>
-0.505

$$$$

Given the compound O=C(O)CC(O)(CC(=O)OCc1ccc(O[C@@H]2O[C@H](CO)[C@@H](O)[C@H](O)[C@H]2O)cc1)C(=O)O (stereo partly drawn) , what is its reported av Z?
-0.628

Now this one: O=c1oc2cc(O)ccc2c2cc(O)c(O)cc12
-0.535

Now this one: COc1cc(O)ccc1/C=C/C(=O)c1ccc(O)cc1
-0.917

Now this one: O=C(/C=C/c1ccc(O)c(O)c1)N[C@@H](Cc1ccc(O)c(O)c1)C(=O)O [Clovamide]
-0.627

Now this one: O=C(/C=C/c1ccc(O)c(O)c1)OCCc1ccccc1
-0.686

Now this one: Oc1ccc2c(c1)OC[C@]1(O)Cc3cc(O)c(O)cc3[C@H]21
-0.654

Now this one: COc1cc(O)c2c(=O)c(OC)c(-c3ccc(OC)c(OC)c3)oc2c1
-0.472

Now this one: Oc1cc(O)cc(/C=C/c2ccc(O)c(O)c2)c1
-1.235

Now this one: O=c1c(O)c(-c2ccc(O)c(O)c2)oc2c(O[C@@H]3O[C@H](CO)[C@@H](O)[C@H](O)[C@H]3O)c(O)cc(O)c12
-0.722

Now this one: COc1cc(C(=O)O[C@H]2[C@@H]3C=CO[C@@H](O[C@@H]4O[C@H](CO)[C@@H](O)[C@H](O)[C@H]4O)[C@@H]3[C@@]3(CO)O[C@@H]23)ccc1O [Picroside II]
-0.537

Now this one: CC1=CC(=O)c2c(O)cccc2C1=O
-1.504

Now this one: O=C(O)Cc1cc(O)ccc1O[C@@H]1O[C@H](CO)[C@@H](O)[C@H](O)[C@H]1O
-0.357

Now this one: O=c1ccoc2cc(O)ccc12 [7-Hydroxy-4H-chromen-4-one]
-0.317

Now this one: C=C(C)[C@H](CC=C(C)C)Cc1c(O)cc(O)c2c1O[C@H](c1ccc(O)cc1O)CC2=O
-0.558

Now this one: Oc1cc(O)c2c(c1)O[C@H](c1cc(O)c(O)c(O)c1)[C@@H](O)C2 [(+)-Gallocatechin]
-0.881

Now this one: O=C(O)CC(=O)OC[C@H]1O[C@@H](Oc2c(-c3ccc(O)c(O)c3)oc3cc(O)cc(O)c3c2=O)[C@H](O)[C@@H](O)[C@@H]1O
-0.779

Now this one: COc1cc2c(O)c3c(c(-c4ccc5c(c4)OCO5)c2cc1OC)C(=O)OC3
-0.626

Now this one: COc1cc(-c2coc3cc(O[C@@H]4O[C@H](CO)[C@@H](O)[C@H](O)[C@H]4O)c(OC)c(O)c3c2=O)ccc1O
-0.59

Now this one: COc1cc(/C=C/C(=O)OCC2OC(OC3(CO)OC(CO)C(O)C3OC(=O)/C=C/c3cc(OC)c(O)c(OC)c3)C(O)C(O)C2O)cc(OC)c1O (stereo not drawn) [(E)-3',6-Disinapoylsucrose]
-0.219

Now this one: C[C@@H]1CC(=O)c2c(ccc3c2C(=O)c2cccc(O)c2C3=O)C1
-0.602

Now this one: CC(C)=CCC[C@]1(C)C=Cc2c(O)c3c(c(CC=C(C)C)c2O1)O[C@]12C(=C[C@@H]4C[C@H]1C(C)(C)O[C@@]2(C/C=C(/C)C(=O)O)C4=O)C3=O
-1.572

Now this one: Cc1c(O)c(C)c2c(c1O)C(=O)C[C@@H](c1ccc(O)cc1)O2
-0.574

----------
Each record here notes measured av puncta.
MEASURED_TARGET: UniProt P10636
ASSAY_NAME: MCE Phenols Library screening, tau biosensor cell seeding assay (AvZ)
Format: cell-based
SETTINGS: average puncta of the two replicates
// return just the number, without any unit appended

>  <MOLECULE>
O=C(/C=C/c1ccc(O)c(O)c1)O[C@@H]1C[C@@](O)(C(=O)O)C[C@@H](O)[C@@H]1O

>  <av puncta>
12870.1

$$$$
>  <MOLECULE>
COc1ccc(-c2cc(=O)c3c(O)c(OC)c(O)c(OC)c3o2)cc1

>  <av puncta>
15677.7

$$$$

Entry Oc1cc(O)cc(-c2cc3ccc(O)cc3o2)c1 , system UniProt P10636: what av puncta was measured?
15938.9

Now this one: CC(=O)O[C@@H](CC=C(C)C)C1=CC(=O)c2c(O)ccc(O)c2C1=O
13443.1

Now this one: O=c1cc(-c2ccc(O)c(-c3c(O)cc(O)c4c(=O)cc(-c5ccc(O)cc5)oc34)c2)oc2cc(O)cc(O)c12
12689.4

Now this one: OCC(O)c1ccc(O)c(O)c1 (centres unmarked) [4-(1,2-Dihydroxyethyl)benzene-1,2-diol]
16682.4

Now this one: CCCCCCC/C=C/C(=O)CCc1ccc(O)c(OC)c1 [[8]-Shogaol]
12111.2

----------
MEASURED_TARGET: tau (Homo sapiens, UniProt P10636)
ASSAY_NAME: MCE Phenols Library screening, tau biosensor cell seeding assay (AvZ)
Format: cell-based
SETTINGS: average of raw data 1 and 2
Each record here notes measured av puncta.
// return just the number, without any unit appended

Worked cases, av puncta given:
>  <COMPOUND>
Oc1ccc([C@H]2Oc3cc(O)cc(O)c3C[C@H]2O)cc1 [(-)-Epiafzelechin]

>  <av puncta>
19340.4

$$$$
>  <COMPOUND>
O=C(O)c1ccc(O)cc1O [2,4-Dihydroxybenzoic acid]

>  <av puncta>
21320.5

$$$$
>  <COMPOUND>
O=C(O)CC(O)(CC(=O)OCc1ccc(O[C@@H]2O[C@H](CO)[C@@H](O)[C@H](O)[C@H]2O)cc1)C(=O)OCc1ccc(O[C@@H]2O[C@H](CO)[C@@H](O)[C@H](O)[C@H]2O)cc1 (stereo partly shown)

>  <av puncta>
24029.7

$$$$

Given the compound COc1cc([C@@H]2OC[C@@H]3[C@H]2CO[C@H]3c2cc(OC)c(O[C@@H]3O[C@H](CO)[C@@H](O)[C@H](O)[C@H]3O[C@@H]3OC[C@](O)(CO)[C@H]3O)c(OC)c2)cc(OC)c1O , what is its reported av puncta?
25767.5

Now this one: CC(=O)Cc1cc(=O)c2c(C)cc(O)c([C@@H]3O[C@H](CO)[C@@H](O)[C@H](O)[C@H]3O)c2o1
21354.9

Now this one: O=c1cc(-c2ccc(O)cc2)oc2cc(O[C@@H]3O[C@H](CO)[C@@H](O)[C@H](O)[C@H]3O[C@@H]3OC[C@](O)(CO)[C@H]3O)cc(O)c12
28032.2

Now this one: O=C(O)C(O)c1ccc(O)cc1 (stereo not shown) [p-Hydroxymandelic acid]
32106.2

----------
MEASURED_TARGET: tau (Homo sapiens, UniProt P10636)
ASSAY_NAME: MCE Phenols Library screening, tau biosensor cell seeding assay (AvZ)
Assay type: cell-based
SETTINGS: puncta, replicate 1
We use 20000 as the dividing line for raw data 1: on or above the line is label 1, below is label 0.

Check out these entries, answers already filled in.
>  <COMPOUND>
O=C(OC[C@H]1O[C@@H](OC(=O)c2cc(O)c(O)c(OC(=O)c3cc(O)c(O)c(O)c3)c2)[C@H](OC(=O)c2cc(O)c(O)c(OC(=O)c3cc(O)c(O)c(O)c3)c2)[C@@H](OC(=O)c2cc(O)c(O)c(OC(=O)c3cc(O)c(O)c(O)c3)c2)[C@@H]1OC(=O)c1cc(O)c(O)c(OC(=O)c2cc(O)c(O)c(O)c2)c1)c1cc(O)c(O)c(OC(=O)c2cc(O)c(O)c(O)c2)c1

>  <DISCRETE_LABEL>
label 0

$$$$
>  <COMPOUND>
Cc1cc(O)c2c(=O)c3c(O)cc(O)c4c5c(O)cc(O)c6c(=O)c7c(O)cc(C)cc7c(c65)c(c2c1)c34

>  <DISCRETE_LABEL>
label 0

$$$$
>  <COMPOUND>
O=c1c(O)c(-c2ccccc2)oc2cc(O)cc(O)c12

>  <DISCRETE_LABEL>
label 1

$$$$
>  <COMPOUND>
COc1cc(/C=C/C(=O)O[C@H]2[C@H](O)[C@@H](CO)O[C@@]2(CO)O[C@H]2O[C@H](CO)[C@@H](O)[C@H](O)[C@H]2O)ccc1O

>  <DISCRETE_LABEL>
label 0

$$$$
>  <COMPOUND>
OCCc1ccc(O)cc1

>  <DISCRETE_LABEL>
label 1

$$$$

Decide: is the reported value of raw data 1 for O=c1cc(-c2ccc(O)cc2)oc2c([C@@H]3O[C@H](CO)[C@@H](O[C@@H]4O[C@H](CO)[C@@H](O)[C@H](O)[C@H]4O)[C@H](O)[C@H]3O)c(O)cc(O)c12 [Vitexin-4''-O-glucoside] equal to or greater than 20000?
label 1

Now this one: CC(C)=CC[C@@H](OC(=O)CC(C)(C)O)C1=CC(=O)c2c(O)ccc(O)c2C1=O [?-Hydroxyisovalerylshikonin]
label 0

Now this one: COc1ccc(-c2cc(=O)c3c(O)cc(O)c(-c4cc(-c5cc(=O)c6c(O)cc(OC)cc6o5)ccc4OC)c3o2)cc1
label 1

Now this one: Oc1cc(O)cc(/C=C/c2ccc(O)c(O)c2)c1
label 0
